measured_on: T1, 4H2742-AA
T1 chain: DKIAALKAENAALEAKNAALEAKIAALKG
protocol_notes: two-hybrid library CCmax;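 also: natural log of median RNA to DNA barcode read ratio; higher means stronger binding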
cond: mean of both orientations

{"binder": "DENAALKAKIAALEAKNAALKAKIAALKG [4H1854-AA]", "interaction score": -1.53}
{"binder": "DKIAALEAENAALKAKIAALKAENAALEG [4H2283-AA]", "interaction score": -1.21}
{"binder": "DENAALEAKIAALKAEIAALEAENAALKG [4H1348-AA]", "interaction score": -1.31}
{"binder": "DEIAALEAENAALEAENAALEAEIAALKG [4H146-AA]", "interaction score": 0.586}
